Where do these numbers come from? They come from patent US6191124A.

# ASSAY TARGET: HIV-1 protease (Human immunodeficiency virus type 1 group M subtype B, UniProt P04585)
# EXPERIMENT NOTES: HIV protease screening assay (fluorescently labeled biotinylated substrate, streptavidin beads), percent inhibition
# Format: biochemical
# CONDITION NOTES: 3.3 μM (Table 7); read-out: PROTEASE INHIBITION
We begin with a simple list: items and their reported inhibition at 3.3 µM.
Write the value in % as a bare number.

Check out these entries, answers already filled in.
* COc1ccc(/C=C/C(O)c2cnc3sc4c(n23)CCCCC4)cc1 (centres unmarked) | 52
* OC(/C=C/c1ccc(F)cc1)c1cnc2sc3c(n12)CCCCC3 (centres unmarked) | 33
* OC(/C=C/c1cccc(F)c1)c1cnc2sc3c(n12)CCCCC3 (centres unmarked) | 57

Now let's try a different one.
# inhibition at 3.3 µM lookup, item OC(/C=C/c1ccco1)c1cnc2sc3c(n12)CCCCC3 (centres unmarked) 60

* * *

Attribute: inhibition at 3.3 µM
# ASSAY TARGET: HIV-1 protease (Human immunodeficiency virus type 1 group M subtype B, UniProt P04585)
# EXPERIMENT NOTES: HIV protease screening assay (fluorescently labeled biotinylated substrate, streptavidin beads), percent inhibition
# Format: biochemical
# CONDITION NOTES: 3.3 μM (Table 5); read-out: % HIV Protease Inhibition
Field format: number, assumed %, no unit text.

• COc1ccc2c(c1)sc1ncc(C(O)CCc3ccccc3)n12 (stereo not shown) [Example 21] = 80
• OC(CCc1ccccc1)c1cnc2sc3ccccc3n12 (stereo not shown) [Example 18] = 28
• OC(CCc1ccccc1)c1cnc2sc3cc(F)ccc3n12 (stereo not shown) [Example 20] = 43

Now for the molecule whose inhibition at 3.3 µM we want.
Query inhibition at 3.3 µM on HIV-1 protease (Human immunodeficiency virus type 1 group M subtype B, UniProt P04585) for Cc1ccc2c(c1)sc1ncc(C(O)CCc3ccccc3)n12 (stereo not shown) [Example 19] 59

* * *

# ASSAY TARGET: UniProtKB P04585
# EXPERIMENT NOTES: HIV protease screening assay (fluorescently labeled biotinylated substrate, streptavidin beads), percent inhibition
# Type: biochemical
# CONDITION NOTES: 1.1-1.3 μM (Table 1)
ENDPOINT NAME: % Protease Inhibition (%)
# unit: % | format: bare number

// known answers, use as guide
• Cc1sc2ncc(C(O)/C=C/c3ccccc3)n2c1C (stereo not shown) = 63
• Cc1sc2ncc(C(O)CCc3ccccc3)n2c1C (stereo not shown) = 96

Here's the next entry for you.
What value of % Protease Inhibition has been recorded for this entry: Cc1sc2ncc(C(O)CCCc3ccccc3)n2c1C (stereo not shown) 16

* * *

# ASSAY TARGET: UniProt:P04585
# EXPERIMENT NOTES: HIV protease screening assay (fluorescently labeled biotinylated substrate, streptavidin beads), percent inhibition
# Format: biochemical
# CONDITION NOTES: 10 μM (Table 2); read-out: % Protease Inhibition
inhibition at 10 µM by entry:
The reply should contain only the number, in %.

Example entries begin here.
• Cc1csc2ncc(C(O)CC(C)c3ccccc3)n12 (stereo not shown) = 51
• Cc1csc2ncc(C(O)CCCCc3ccccc3)n12 (stereo not shown) = 58
• Cc1csc2ncc(C(O)CCc3ccc(Br)cc3)n12 (stereo not shown) = 83

Which inhibition at 10 µM is reported for this compound? Cc1csc2ncc(C(O)CCc3ccccc3)n12 (stereo not shown) 79

* * *

# ASSAY TARGET: HIV-1 protease (Human immunodeficiency virus type 1 group M subtype B, UniProt P04585)
# EXPERIMENT NOTES: HIV protease screening assay (fluorescently labeled biotinylated substrate, streptavidin beads), percent inhibition
# Format: biochemical
# CONDITION NOTES: 3.3 μM (Table 6); read-out: PROTEASE INHIBITION
# Experimental: The HIV protease screening assay is based on fluorescently labeled substrate which can be resolved from nonlabeled cleavage product using special beads coated with streptavidin. […] The labeled cleavage product is separated from the unreacted substrate via filtration and is read on the Idexx screen machine. The data are analyzed by appropriate computer algorithms to ascertain percent inhibition values.
Listed compounds paired with reported inhibition at 3.3 µM
Field format: number, assumed %, no unit text.

- OC(CCc1cccc(Cl)c1)c1cnc2sc3c(n12)CCCCC3 (stereo not shown): 98
- OC(CCc1ccco1)c1cnc2sc3c(n12)CCCCC3 (stereo not shown): 85
- CN(C)c1ccc(CCC(O)c2cnc3sc4c(n23)CCCCC4)cc1 (stereo not shown): 70
- COc1ccc(CCC(O)c2cnc3sc4c(n23)CCCCC4)cc1 (stereo not shown): 81
- OC(CCc1cccc(F)c1)c1cnc2sc3c(n12)CCCCC3 (stereo not shown): 64

Form field: inhibition at 3.3 µM recorded for OC(CCc1ccc2ccccc2c1)c1cnc2sc3c(n12)CCCCC3 (stereo not shown) with HIV-1 protease (Human immunodeficiency virus type 1 group M subtype B, UniProt P04585) (enter value) 80

Find inhibition at 3.3 µM (HIV-1 protease (Human immunodeficiency virus type 1 group M subtype B, UniProt P04585)) for the entry OC(CCc1cc(F)cc(F)c1)c1cnc2sc3c(n12)CCCCC3 (stereo not shown) 88

What value of inhibition at 3.3 µM on HIV-1 protease (Human immunodeficiency virus type 1 group M subtype B, UniProt P04585) does OC(CCc1ccc(F)cc1)c1cnc2sc3c(n12)CCCCC3 (stereo not shown) have? 77

What measured inhibition at 3.3 µM is associated with OC(CCc1cccc(F)c1F)c1cnc2sc3c(n12)CCCCC3 (stereo not shown) on HIV-1 protease (Human immunodeficiency virus type 1 group M subtype B, UniProt P04585)? 99

Record OC(CCc1cccc(Br)c1)c1cnc2sc3c(n12)CCCCC3 (stereo not shown) : what is its inhibition at 3.3 µM with HIV-1 protease (Human immunodeficiency virus type 1 group M subtype B, UniProt P04585)? 80

* * *

# ASSAY TARGET: HIV-1 protease (Human immunodeficiency virus type 1 group M subtype B)
# EXPERIMENT NOTES: HIV protease screening assay (fluorescently labeled biotinylated substrate, streptavidin beads), percent inhibition
# Type: biochemical
# CONDITION NOTES: 3.3-3.7 μM (Table 1)
# Description: The HIV protease screening assay is based on fluorescently labeled substrate which can be resolved from nonlabeled cleavage product using special beads coated with streptavidin. […] The labeled cleavage product is separated from the unreacted substrate via filtration and is read on the Idexx screen machine. The data are analyzed by appropriate computer algorithms to ascertain percent inhibition values.
ENDPOINT NAME: % Protease Inhibition (%)
Value expressed in %; do not type the unit.

Check out these entries, answers already filled in.
- Cc1sc2ncc(C(O)CCCc3ccccc3)n2c1C (centres unmarked): 72
- Cc1sc2ncc(C(O)CCc3ccccc3)n2c1C (centres unmarked): 109

State the recorded % Protease Inhibition for this entry: Cc1sc2ncc(C(O)Cc3ccccc3)n2c1C (centres unmarked) 27

Can you share its % Protease Inhibition? I mean this compound: Cc1sc2ncc(C(O)/C=C/c3ccccc3)n2c1C (centres unmarked) 103

* * *

# ASSAY TARGET: HIV-1 protease (Human immunodeficiency virus type 1 group M subtype B, UniProt P04585)
# EXPERIMENT NOTES: HIV protease screening assay (fluorescently labeled biotinylated substrate, streptavidin beads), percent inhibition
# Assay type: biochemical
# CONDITION NOTES: 3.3-3.7 μM (Table 2)
Measured % Protease Inhibition, listed per entry.
Numbers only; they are read as %.

* Cc1csc2ncc(C(O)CCc3ccccc3)n12 (stereo not shown) | 32
* Cc1csc2ncc(C(O)CCCCc3ccccc3)n12 (stereo not shown) | 12

Attention now turns to another entry.
# lookup: % Protease Inhibition of Cc1csc2ncc(C(O)CCc3ccc(Br)cc3)n12 (stereo not shown) 22

* * *

# ASSAY TARGET: HIV-1 protease (Human immunodeficiency virus type 1 group M subtype B, UniProt P04585)
# EXPERIMENT NOTES: HIV protease screening assay (fluorescently labeled biotinylated substrate, streptavidin beads), percent inhibition
# Format: biochemical
# CONDITION NOTES: 1.1 μM (Table 7); read-out: PROTEASE INHIBITION
# Procedure: The HIV protease screening assay is based on fluorescently labeled substrate which can be resolved from nonlabeled cleavage product using special beads coated with streptavidin. […] The labeled cleavage product is separated from the unreacted substrate via filtration and is read on the Idexx screen machine. The data are analyzed by appropriate computer algorithms to ascertain percent inhibition values.
ENDPOINT NAME: inhibition at 1.1 µM
In your response, put the unit directly after the numeric value.

Answered cases to consult:
* OC(/C=C/c1ccco1)c1cnc2sc3c(n12)CCCCC3 (stereo not shown) | 12%
* OC(/C=C/c1ccc(F)cc1)c1cnc2sc3c(n12)CCCCC3 (stereo not shown) | 23%
* OC(/C=C/c1cccc(F)c1)c1cnc2sc3c(n12)CCCCC3 (stereo not shown) | 24%

Entry under review: COc1ccc(/C=C/C(O)c2cnc3sc4c(n23)CCCCC4)cc1 (stereo not shown) . Reported inhibition at 1.1 µM? 15%
